Cut-off 0.4 on logP, inclusive. At or above means YES; below means NO.

INSERT INTO assay_data (smiles_structure, assigned_category) VALUES
  ('CCN(CC)C(=O)NS(=O)(=O)c1ccccc1', 'YES'),
  ('CC(C)NC(=O)NS(=O)(=O)c1ccccc1', 'YES'),
  ('CCNC(=O)NS(=O)(=O)c1ccccc1', 'YES'),
  ('CNC(=O)N(C)S(=O)(=O)Cc1ccccc1', 'YES'),
  ('CN(C)C(=O)NS(=O)(=O)Cc1ccccc1', 'YES'),
  ('CC(C)(C)NC(=O)NS(=O)(=O)c1ccccc1', 'YES'),
  ('CNC(=O)NS(=O)(=O)Cc1ccccc1', 'YES'),
  ('CNC(=O)NS(=O)(=O)c1ccccc1', 'YES'),
  ('CCCNC(=O)NS(=O)(=O)c1ccccc1', 'YES'),
  ('NC(=O)NS(=O)(=O)c1cccnc1', 'NO'),
  ('NC(=O)NS(=O)(=O)c1ccccc1', 'NO'),
  ('CN(C)C(=O)NS(=O)(=O)c1ccccc1', 'NO'),
  ('CNC(=O)NS(=O)(=O)c1cccnc1', 'NO'),
  ('CNC(=O)N(C)S(=O)(=O)c1cccnc1', 'YES');
